Record form. Attribute: IC50. Fill in for each entry.
# Tested on: SPI1 type III protein secretion of SopE'-'Bla by Salmonella enterica
# Experiment notes: Primary assay: Type III protein secretion of the chimeric SopE'-'Bla polypeptide by Salmonella enterica
# Type: cell-based
# Run conditions: read-out: SopE IC50(uM)
Field: numeric (µM). Do not append units.

Recorded result, O=C(N[C@@H](CSCc1ccccc1)C(=O)O)c1cc(N2CCN(c3nccc(C(F)(F)F)n3)CC2)nc(-c2ccc(F)cc2)n1 [Compound 55] , IC50: 2.4

// field: IC50; key: O=C(N[C@H](Cc1ccc(Cl)cc1)C(=O)O)c1cc(N2CCCCC2)nc(N2CCC(c3ccccc3)CC2)n1 [Compound 4] ; value = 2

response.value for CN(C)c1ccc(-c2nc(C(=O)N[C@@H](COCc3ccccc3)C(=O)O)cc(N3CCN(c4nccc(C(F)(F)F)n4)CC3)n2)cc1 [Compound 49] (field: IC50) = 5.9

Sample CN(C)c1ccc(-c2nc(C(=O)N[C@H](Cc3ccc(Cl)cc3)C(=O)O)cc(N3CCc4ccccc4C3)n2)cc1 [Compound 6] ; IC50 observed: 4.5

###

# Test system: SPI1 type III protein secretion of SopE'-'Bla by Salmonella enterica
# Experiment notes: Primary assay: Type III protein secretion of the chimeric SopE'-'Bla polypeptide by Salmonella enterica
# Type: cell-based
# Run conditions: read-out: SopE IC50(uM)
So I've got a bunch of compounds here, and I need their IC50 values.
Only the number, expressed in µM, is required.

So for O=C(N[C@@H](CSCc1ccccc1)C(=O)O)c1cc(N2CCN(c3ccccc3)CC2)nc(-c2ccc(Cl)c(Cl)c2)n1 , the logged IC50 turned out to be 2.1

Record summary for O=C(N[C@@H](CSCc1ccccc1)C(=O)O)c1cc(N2CCC(c3ccc(F)cc3)CC2)nc(-c2ccc(Cl)c(Cl)c2)n1 : reported IC50 = 1.6

Entry O=C(N[C@H](COCc1ccccc1)C(=O)O)c1cc(N2CCC(c3ccccc3)CC2)nc(-c2ccc(Cl)c(Cl)c2)n1 ; IC50 = 1.4

Recorded IC50 (compound Cc1cc(C(=O)NC(Cc2ccc(Cl)cc2)C(=O)O)nc(-c2ccc(-c3ccccc3)cc2)n1 (centres unmarked) ): 7.4

// field: IC50; key: N#Cc1ccc(-c2nc(C(=O)N[C@@H](CSCc3ccccc3)C(=O)O)cc(N3CCN(c4ccccc4)CC3)n2)cc1 ; value = 6.5

Reported IC50 of O=C(N[C@@H](CSCc1ccccc1)C(=O)O)c1cc(N2CCCCC2)nc(N2CCC(c3ccccc3)CC2)n1 : 3.2

According to the records, this compound CC1CCN(c2nc(C(=O)N[C@@H](CSCc3ccccc3)C(=O)O)cc(N3CCN(c4nccc(C(F)(F)F)n4)CC3)n2)CC1 displays IC50 of 3.4

According to the records, this compound CC1CCN(c2nc(C(=O)N[C@@H](COCc3ccccc3)C(=O)O)cc(N3CCN(c4nccc(C(F)(F)F)n4)CC3)n2)CC1 displays IC50 of 4.5

For N#Cc1ccc(-c2nc(C(=O)N[C@H](Cc3ccc(Cl)cc3)C(=O)O)cc(N3CCc4ccccc4C3)n2)cc1 the compound record lists IC50 as 4.3

According to the records, this compound O=C(N[C@H](Cc1ccc(Cl)cc1)C(=O)O)c1cc(N2CCCc3ccccc32)nc(-c2cccc(C(F)(F)F)c2)n1 displays IC50 of 1.3

Sample C[C@@H](OCc1ccccc1)[C@H](NC(=O)c1cc(N2CCCCC2)nc(N2CCC(c3ccccc3)CC2)n1)C(=O)O ; IC50 observed: 4.6

Form: compound = O=C(NC(Cc1ccc(Cl)cc1)C(=O)O)c1cc(N2CCN(c3nccc(C(F)(F)F)n3)CC2)nc(-c2cccs2)n1 (centres unmarked) ; IC50 = 1.8

Cc1cc(C(=O)N[C@@H](CSCc2ccccc2)C(=O)O)nc(N2CCC(c3ccccc3)CC2)n1 yielded IC50 of 34.2

What the record says about O=C(N[C@@H](CSCc1ccccc1)C(=O)O)c1cc(N2CCCCC2)nc(-c2ccc(-c3ccccc3)cc2)n1 : IC50 is 4.1

###

Give measured log10 IC50 for each item. Keep answers brief.
# Tested on: SPI1 type III protein secretion of SopE'-'Bla by Salmonella enterica
# Experiment notes: Primary assay: Type III protein secretion of the chimeric SopE'-'Bla polypeptide by Salmonella enterica
# Assay type: cell-based
# Run conditions: read-out: SopE IC50(uM)
Please interpret these as log10 of IC50 where IC50 is in µM.

Consider O=C(N[C@@H](CSCc1ccccc1)C(=O)O)c1cc(N2CCN(c3nccc(C(F)(F)F)n3)CC2)nc(-c2ccc([N+](=O)[O-])cc2)n1 [Compound 52] . Its measured log10 IC50 is 1.02

Given item O=C(NC(Cc1ccc(Cl)cc1)C(=O)O)c1cc(-c2cccc(C(F)(F)F)c2)nc(N2CCN(c3ccccc3)CC2)n1 (stereo in doubt) [Compound 31] , the value recorded as its log10 IC50 is 0.61

# compound CN1CCN(c2nc(C(=O)N[C@@H](COCc3ccccc3)C(=O)O)cc(N3CCN(c4nccc(C(F)(F)F)n4)CC3)n2)CC1 [Compound 45] ; its log10 IC50 = 1.78

The compound identified as O=C(NC(Cc1ccc(Cl)cc1)C(=O)O)c1cc(N2CCN(c3nccc(C(F)(F)F)n3)CC2)nc(-c2ccoc2)n1 (stereo not drawn) [Compound 62] registered its log10 IC50 at 0.73

Reported log10 IC50 of CC1CCN(c2nc(C(=O)N[C@@H](CSCc3ccccc3)C(=O)O)cc(N3CCN(c4ccccc4)CC3)n2)CC1 [Compound 27] : 0.72

# log10 IC50 (compound: C=C(NC(=O)c1cc(N2CCN(c3nccc(C(F)(F)F)n3)CC2)nc(-c2ccoc2)n1)C(=O)O [Compound 63] ) is 1.33

###

# Tested on: SPI1 type III protein secretion of SipB by S. enterica
# Experiment notes: Secondary assay: Type III-dependent protein secretion of the SipB polypeptide by S. enterica
# Format: cell-based
# Run conditions: Salmonella enterica, read-out: SipB IC50(uM)
Result type: IC50

Consider CC1CCN(c2cc(C(=O)NC(Cc3ccc(Cl)cc3)C(=O)O)nc(-c3ccc(Oc4ccccc4)cc3)n2)CC1 (stereo not drawn) [Compound 39] . Its measured IC50 is 13.2 µM

Data point: CC1CCN(c2cc(C(=O)N[C@@H](CSCc3ccccc3)C(=O)O)nc(-c3ccc(Oc4ccccc4)cc3)n2)CC1 [Compound 37] ; IC50 = > 100 µM

Item: O=C(NC(Cc1ccc(Cl)cc1)C(=O)O)c1cc(-c2ccc(C(F)(F)F)cc2)nc(N2CCN(c3ccccn3)CC2)n1 (stereo not drawn) [Compound 43] | IC50: 74.2 µM

###

Record form. Attribute: IC50. Fill in for each entry.
# Test system: SPI1 type III protein secretion of SopE'-'Bla by Salmonella enterica
# Experiment notes: Primary assay: Type III protein secretion of the chimeric SopE'-'Bla polypeptide by Salmonella enterica
# Format: cell-based
# Run conditions: read-out: SopE IC50(uM)
Numeric only. Scale: µM

# lookup: O=C(N[C@@H](COCc1ccccc1)C(=O)O)c1cc(-c2ccc(Cl)c(Cl)c2)nc(N2CCN(c3ccccc3)CC2)n1 on SPI1 type III protein secretion of SopE'-'Bla by Salmonella enterica, IC50 = 3.2

Form field, IC50 with SPI1 type III protein secretion of SopE'-'Bla by Salmonella enterica, item O=C(N[C@@H](COCc1ccccc1)C(=O)O)c1cc(N2CCN(c3nccc(C(F)(F)F)n3)CC2)nc(-c2cccs2)n1 : 28.7

Log: SPI1 type III protein secretion of SopE'-'Bla by Salmonella enterica, compound O=C(N[C@@H](CSCc1ccccc1)C(=O)O)c1cc(N2CCN(c3nccc(C(F)(F)F)n3)CC2)nc(-c2ccoc2)n1 , IC50 = 10.2

###

# Tested on: SPI1 type III protein secretion of SopE'-'Bla by Salmonella enterica
# Experiment notes: Primary assay: Type III protein secretion of the chimeric SopE'-'Bla polypeptide by Salmonella enterica
# Type: cell-based
# Run conditions: read-out: SopE IC50(uM)
Answer each item with its documented IC50.
# do not omit the unit; it follows the number

get_value(item= O=C(N[C@@H](CSCc1ccccc1)C(=O)O)c1cc(N2CCN(c3ccccc3)CC2)nc(Cl)n1 [Compound 26] , readout=IC50) returns 50.1 µM

Note to self: IC50 recorded for O=C(N[C@@H](CSCc1ccccc1)C(=O)O)c1cc(N2CCN(c3nccc(C(F)(F)F)n3)CC2)nc(-c2cccs2)n1 [Compound 58] was 4.5 µM

Reported IC50 for O=C(N[C@@H](CSCc1ccccc1)C(=O)O)c1cc(N2CCC(c3ccccc3)CC2)nc(-c2ccc(F)c(F)c2)n1 [Compound 18] was 19 µM

Lab note: measured IC50 of O=C(N[C@@H](CSCc1ccccc1)C(=O)O)c1cc(N2CCC(c3ccc(F)cc3)CC2)nc(-c2ccc(C(F)(F)F)cc2)n1 [Compound 22] was 1.8 µM

Briefly, IC50 measured for CC1CCN(c2cc(C(=O)N[C@@H](COCc3ccccc3)C(=O)O)nc(-c3ccc(Oc4ccccc4)cc3)n2)CC1 [Compound 38] : 1.3 µM

O=C(N[C@@H](CSCc1ccccc1)C(=O)O)c1cc(N2CCC(c3ccccc3)CC2)nc(-c2ccc(C(F)(F)F)cc2)n1 [Compound 21] has a reported IC50 of 3.6 µM

Form field IC50, entry O=C(N[C@H](Cc1ccc(Cl)cc1)C(=O)O)c1cc(N2CCc3ccccc3C2)nc(-c2cccc(C(F)(F)F)c2)n1 [Compound 7] : 1.2 µM
